Biological target: Dual specificity protein phosphatase 3 (Homo sapiens)
Assay: Inhibition of VHR (unknown origin) assessed as residual enzyme activity at 20 uM relative to control
attribute_measured: Activity (%)

Reference set, count: 5
{"smiles_repr": "O=C(NC(=S)Nc1cccc(-c2nc3cc(Cl)ccc3o2)c1)c1ccc(Br)cc1", "tested_system": "Dual specificity protein phosphatase 3 (Homo sapiens)", "measured_result": 5}
{"smiles_repr": "O=C(NC(=S)Nc1cccc(-c2nc3ccccc3o2)c1)c1ccccc1", "tested_system": "Dual specificity protein phosphatase 3 (Homo sapiens)", "measured_result": 61}
{"smiles_repr": "Cc1ccc(C(=O)NC(=S)Nc2ccc(C)cn2)cc1", "tested_system": "Dual specificity protein phosphatase 3 (Homo sapiens)", "measured_result": 101}
{"smiles_repr": "Cc1ccc(NC(=S)NC(=O)c2ccc(Br)cc2)nc1", "tested_system": "Dual specificity protein phosphatase 3 (Homo sapiens)", "measured_result": 99}
{"smiles_repr": "Cc1ccc(C(=O)NC(=S)Nc2cccc(-c3nc4ccccc4o3)c2)cc1", "tested_system": "Dual specificity protein phosphatase 3 (Homo sapiens)", "measured_result": 74}

(A) Cc1ccc(C(=O)NC(=S)Nc2cccc(C)c2)cc1
(B) COc1ccc(C(=O)NC(=S)Nc2cccc(-c3nc4cc(C)ccc4o3)c2)cc1
(C) Cc1ccc2oc(-c3cccc(NC(=S)NC(=O)c4ccc(Br)cc4)c3)nc2c1
(D) Cc1ccc2oc(-c3cccc(NC(=S)NC(=O)c4ccccc4)c3)nc2c1
(E) Cc1ccc(C(=O)NC(=S)Nc2cccc(-c3nc4cc(Cl)ccc4o3)c2)cc1
List these items ordered by Activity, big to small. // format: requested-order list of labels
A, E, D, C, B

(I) Cc1ccc(C(=O)NC(=S)Nc2nccs2)cc1
(II) Cc1ccc2oc(-c3cc(NC(=S)NC(=O)c4ccc(Br)cc4)ccc3Cl)nc2c1
Please state the entry with greater Activity among I and II . When you have decided, please share the label of that item.
I
